Numbers sourced from patent US7118895B2.

# Tested on: Crude diglycosidase
# protocolNotes: Examination of temperature in the conversion into isoflavone aglycons by diglycosidase using soybean materials
# Format: biochemical, Penicillium multicolor IAM7153
# Set-up: concentration or dose not given beside the values
# details: 45 °C; heat treatment of enzyme: no; 0 h
metric: Decomposition efficiency of glycitin family in roasted soy flour (%)
Express it in %; write the number only.

Worked cases, Decomposition efficiency of glycitin family in roasted soy flour given:
COc1cc2c(=O)c(-c3ccc(O)cc3)coc2cc1O: 10.4
COc1cc2c(=O)c(-c3ccc(O)cc3)coc2cc1O[C@@H]1O[C@H](CO)[C@@H](O)[C@H](O)[C@H]1O: 51.3

We now examine a further molecule.
Exercise: Data request, read-out Decomposition efficiency of glycitin family in roasted soy flour, for COc1cc2c(=O)c(-c3ccc(O)cc3)coc2cc1O[C@@H]1O[C@H](COC(C)=O)[C@@H](O)[C@H](O)[C@H]1O
Solution: 38.3
